- ASSAY DETAILS: compound fluorescence in toxin protease inhibitor counterscreen, primary screen, artefact control for toxin protease inhibitor project, biochemical, multiplex microsphere, HTS (AID 624483)
- TEST CONTEXT: compound autofluorescence counterscreen, microsphere flow cytometry; stronger effect = higher value
The campaign covered roughly 360,000 compounds. About 11,000 (3.1%) were called active. Another 2% or so got no clear call; they are omitted. This is one part of a sample in which actives are shown more often than they occur.
Would you kindly list fluorescence intensity for each of these compounds?
In your answer, state the number alone without any accompanying words.

Query string: Quick one: fluorescence intensity of COCc1cccc(-c2csc(C(O)c3ccc(F)cc3)n2)c1 (stereo unspecified) ?
Result string: 3440

Query string: Report fluorescence intensity for `Cc1ccc(SCc2cc(=O)[nH]c(N3CCCCC3)n2)cc1` please.
Result string: 4420

Query string: Find the recorded fluorescence intensity belonging to `Cc1cc(C)cc(NC(=O)COC(=O)c2cc(C)oc2C)c1` and report it.
Result string: 4090

Query string: Quick one: fluorescence intensity for `COc1ccc(CN(C(=O)c2cccs2)c2nccs2)cc1OC` ?
Result string: 3950

Query string: Find the recorded fluorescence intensity belonging to `Cc1ccc(SCCSc2ncccn2)cc1` and report it.
Result string: 4180

Query string: Requested field: fluorescence intensity. Item: `CCCCOc1ccc(C(=O)NCc2ccncc2)cc1`
Result string: 20300

Query string: Given O=C(NCc1ccc(F)cc1)c1cc(C2CCCCN2C(=O)C2CCCCC2)on1 (stereo unspecified) , state its recorded fluorescence intensity.
Result string: 3660

Query string: I'd like to know its fluorescence intensity. The compound in question is `CN1CCN(C(=O)c2ccc(-c3cc4nc(NCc5cccnc5)n(C)c(=O)c4s3)cc2)CC1`
Result string: 3940

Query string: Entry CCCC(C)C(=O)NCc1ccncc1 (stereo unspecified) : reported fluorescence intensity = ?
Result string: 2180

Query string: Field request: fluorescence intensity | item: `Cc1cc(C)n2c(Nc3c(C)cccc3C)c(CCc3ccccc3)nc2n1`
Result string: 5430

Query string: fluorescence intensity for `COC(=O)[C@@]1(Cc2ccc(F)cc2)[C@H]2c3cc(C(=O)N4CCCC4)n(Cc4ccc(OC(F)(F)F)cc4)c3C[C@H]2CN1C(=O)c1ccccc1` ?
Result string: 4360

====

Kindly supply the reported fluorescence intensity values for the records listed here.
- ASSAY DETAILS: compound fluorescence in toxin protease inhibitor counterscreen, primary screen, artefact control for toxin protease inhibitor project, biochemical, multiplex microsphere, HTS (AID 624483)
- TEST CONTEXT: compound autofluorescence counterscreen, microsphere flow cytometry; stronger effect = higher value
Out of some 360,000 compounds screened, about 11,000 (3.1%) were called active. Inconclusive results (about 2%) are left out. The list comes from a sample in which actives are over-represented; it also holds close analogues and randomly drawn compounds.
Form: value (number only, do not type unit).

Query string: Fill in the blank: the reported fluorescence intensity of `Nc1ncnc2c1ncn2[C@@H]1O[C@H](C(=O)NS(=O)(=O)c2c(Cl)nc3sccn23)[C@@H](O)[C@H]1O` is ____.
Result string: 3980

Query string: // returns reported fluorescence intensity for input `Cn1c(=O)c2c(nc(SCCNS(=O)(=O)c3ccccc3)n2C)n(C)c1=O`
Result string: 10500

Query string: Recorded fluorescence intensity for COc1ccc(CCCNC(=O)C2Cc3c(-c4cccc(C(N)=O)c4)ccnc3O2)cc1 (stereo not given) , please?
Result string: 3760

Query string: Name the reported fluorescence intensity value associated with the compound CC1Cc2[nH][nH]c(=O)c2C(C2CCCC2)O1 (stereo not given)
Result string: 6280

Query string: Dear colleague, I am looking for the recorded fluorescence intensity of the following compound: NS(=O)(=O)c1ccc(NC2=CC(c3ccc(F)cc3)N(c3ccc(S(N)(=O)=O)cc3)C2=O)cc1 (stereo not given)
Result string: 4340

====

- ASSAY DETAILS: compound fluorescence in toxin protease inhibitor counterscreen, primary screen, artefact control for toxin protease inhibitor project, biochemical, multiplex microsphere, HTS (AID 624483)
- TEST CONTEXT: compound autofluorescence counterscreen, microsphere flow cytometry; stronger effect = higher value
Hit rate of the full screen: of about 360,000 compounds, about 11,000 (3.1%) were called active. Another 2% or so got no clear call; they are omitted. For the sample, actives were picked, then their nearest neighbours and some compounds at random.
QUANTITY KIND: fluorescence intensity

Query string: Can you look up the measured fluorescence intensity of CC(C)C1C(=O)N(Cc2cn(CCC3OCCO3)nn2)CCS(=O)(=O)N1Cc1ccc(-c2ccccc2C(F)(F)F)cc1 (configuration not stated) for me?
Result string: 5850 (inactive)

Query string: So what does the record say about fluorescence intensity for CN(Cc1ccccc1F)c1cc2c(c3c1ccn3C)C1CCC2O1 (configuration not stated) ?
Result string: 5510 (inactive)

Query string: Quick check: fluorescence intensity of `c1cc(-c2ccc3[nH]ccc3c2)n2ccnc2c1` ?
Result string: 3500 (inactive)

Query string: Look up fluorescence intensity: `O=C(CNC(=O)c1ccccc1)NCC(=O)OCc1ccc(Cl)cc1`
Result string: 22400 (active)

Query string: Returns the measured fluorescence intensity for the input molecule. Input: `O=C(CCc1nc2sc3c(c2c(=O)[nH]1)CCCC3)NCC(=O)Nc1ccccc1Br`
Result string: 3820 (inactive)

Query string: Query: fluorescence intensity; subject: OC(c1nc2ccc(F)cc2[nH]1)C(O)c1nc2ccc(F)cc2[nH]1 (configuration not stated)
Result string: 3790 (inactive)

Query string: For the molecule Cc1ccc(N2C(=O)C3C(c4ccccc4)(C2=O)C3(c2ccccc2)c2ccccc2)cc1 (configuration not stated) , what fluorescence intensity is on record?
Result string: 22200 (active)

Query string: Give its fluorescence intensity value. Item: `O=C(Cc1ccc(-n2c(=O)c3sccc3n(Cc3ccc(F)cc3)c2=O)cc1)NCc1ccco1`
Result string: 5860 (inactive)

Query string: Fill in the blank: the reported fluorescence intensity of `O=C(CNC(=O)c1cc2c(s1)CCC2)Nc1ccccc1Br` is ____.
Result string: 24100 (active)

Query string: Value lookup for fluorescence intensity; key = `O=C(NCc1ccco1)c1cc2sccc2n1Cc1ccc(F)cc1`
Result string: 20800 (active)

Query string: Which fluorescence intensity reading was recorded for the molecule `O=C(CSc1nnc(-c2ccncc2)n1-c1ccc(Cl)cc1)Nc1ccc(C(=O)O)cc1` ?
Result string: 3940 (inactive)

Query string: Using the record for `CCOc1ccc(S(=O)(=O)Nc2nccs2)cc1` , report its fluorescence intensity.
Result string: 4450 (inactive)

Query string: // returns reported fluorescence intensity for input `O=C(NCc1ccco1)c1ccc(Cn2c(=O)c3sccc3n(Cc3ccc(F)cc3)c2=O)cc1`
Result string: 5200 (inactive)

Query string: # input molecule: O=C(NCc1ccco1)C1CCCN1S(=O)(=O)c1ccccc1C(F)(F)F (configuration not stated) ; wanted: its fluorescence intensity
Result string: 4200 (inactive)

Query string: Value lookup for fluorescence intensity; key = `COCCCn1c(SCC(=O)Nc2ccccc2)nnc1-c1ccncc1`
Result string: 3490 (inactive)

Query string: What does the record list as fluorescence intensity for `O=C(CNC(=O)c1ccccc1)NCC(=O)OCC(=O)c1ccccc1` ?
Result string: 5170 (inactive)

Query string: // returns reported fluorescence intensity for input O=S1(=O)CC(N2CCN(Cc3ccccc3F)CC2)CN1Cc1cn(Cc2ccccc2)nn1 (configuration not stated)
Result string: 5590 (inactive)

Query string: Look up fluorescence intensity for this molecule: Cc1cc2oc3ccc(NCCC4CCCN4C)cc3c(=O)c2cc1C (configuration not stated)
Result string: 5120 (inactive)

Query string: fluorescence intensity for `CCOc1ccc2sc(NS(=O)(=O)c3ccc(N)cc3)nc2c1` ?
Result string: 3350 (inactive)

Query string: Find the recorded fluorescence intensity belonging to `COc1ccc(S(=O)(=O)N2CCCCCC2)cc1NC(=O)Cc1ccc(OC)c(OC)c1` and report it.
Result string: 3920 (inactive)

Query string: Sample O=C(NCC(O)c1nc2ccccc2[nH]1)c1ccc(Br)cc1 (configuration not stated) — what was its fluorescence intensity?
Result string: 5430 (inactive)

Query string: Reported fluorescence intensity, molecule `Cc1ccccc1/[N+]([O-])=C/c1ccncc1` : ____
Result string: 3600 (inactive)

====

- ASSAY DETAILS: compound fluorescence in toxin protease inhibitor counterscreen, primary screen, artefact control for toxin protease inhibitor project, biochemical, multiplex microsphere, HTS (AID 624483)
- TEST CONTEXT: compound autofluorescence counterscreen, microsphere flow cytometry; stronger effect = higher value
Out of some 360,000 compounds screened, about 11,000 (3.1%) were called active. Inconclusive results (about 2%) are left out. For the sample, actives were picked, then their nearest neighbours and some compounds at random.
QUANTITY KIND: fluorescence intensity
Returns: the value as a bare number; no unit string appended.

Query string: So what does the record say about fluorescence intensity for `Cc1cc(C)cc(OCC(=O)Nc2cc(NC(=O)COc3cc(C)cc(C)c3)cc(C(=O)O)c2)c1` ?
Result string: 3790

Query string: Requested read-out: fluorescence intensity. Entry: `CC(=O)NS(=O)(=O)c1ccc(NC(=S)NC(=O)C(C)(C)C)cc1`
Result string: 24700

Query string: Can you share its fluorescence intensity? I mean this compound: `CCOCCC(=O)Nc1ccc2c(c1)c(=O)n(C)n2-c1ccc2ccccc2c1`
Result string: 4100

Query string: Can you share its fluorescence intensity? I mean this compound: `CCOc1ccc(-c2nnn(CC(=O)N3CCN(c4ccc(F)cc4)CC3)n2)cc1OCC`
Result string: 6120

Query string: // fluorescence intensity lookup, key: `COc1ccc(C(=O)Cn2nnc(-c3ccc(N4CCOCC4)cc3)n2)cc1OC`
Result string: 24200

Query string: What value of measured fluorescence intensity is listed for `CCOc1ccc(-c2nnn(CC(=O)N3CCN(c4ccc(OC)cc4)CC3)n2)cc1OCC` ?
Result string: 4250

Query string: Name the reported fluorescence intensity value associated with the compound `COc1ccccc1N1CCN(Cc2cc(OC)c3c(c2)OCO3)CC1`
Result string: 3350

Query string: What value of measured fluorescence intensity is listed for `CC(=O)NS(=O)(=O)c1ccccc1` ?
Result string: 6630

Query string: What value of fluorescence intensity has been reported for the following compound? `COc1ccccc1N1CCN(Cc2ccc(OC)c3ccccc23)CC1`
Result string: 21400

Query string: Entry `COc1ccc(CN2CCN(Cc3ccc(OC)c(OC)c3OC)CC2)cc1` : reported fluorescence intensity = ?
Result string: 3740

src = PubChem BioAssay AID624483
